- System: Mitogen-activated protein kinase; ERK1/ERK2 (Homo sapiens, UniProt P27361+P28482)
- Protocol: Inhibition of ERK1/2 in human A375 cells harboring B-RAF V600E mutant assessed as decrease in phospho-RSK level after 2 hrs by Cellomics ArrayScanTM VTI imaging analysis
- Assay type: cell-based
- Condition set: a-375
Metric: IC50 (nM)

Would you please look over these solved cases?
Could you share what IC50 was measured for C=CC(=O)Nc1ccccc1Nc1nc(Nc2ccnn2C)ncc1C , tested on Mitogen-activated protein kinase; ERK1/ERK2 (Homo sapiens, UniProt P27361+P28482)?
280

Same again, this time with C=CC(=O)Nc1ccccc1Nc1nc(NC2CCOCC2)ncc1Cl
69

Also CNC(=O)c1ccc(F)cc1Nc1cc(Nc2cc(C)nn2C)ncc1C(F)(F)F , if possible.
5100

Repeat with C=CC(=O)Nc1ccccc1Nc1nc(NC2CCOCC2)ncc1C
740

Then C=CS(=O)(=O)Nc1ccc2[nH]nc(-c3ccncc3)c2c1 ?
470

Try the compound CNC(=O)c1ccc(F)cc1Nc1cc(NC2CCOCC2)ncc1C(F)(F)F
2400

(a) C=CC(=O)Nc1ccccc1Nc1cc(NC2CCOCC2)ncc1Cl
(b) C=CC(=O)Nc1cnccc1Nc1nc(NC2CCOCC2)ncc1Cl
(c) C=CS(=O)(=O)N1CCc2cnc(NC3CCOCC3)nc2C1
List these items ordered by IC50, big to small. Your reply should list the labels following the order given in the request.
c, a, b
